Readings of IC50 for the listed molecules
Target: CDK7 (Homo sapiens (Human), UniProt P50613)
Sequence (P50613 whole entry, looked up, species assumed): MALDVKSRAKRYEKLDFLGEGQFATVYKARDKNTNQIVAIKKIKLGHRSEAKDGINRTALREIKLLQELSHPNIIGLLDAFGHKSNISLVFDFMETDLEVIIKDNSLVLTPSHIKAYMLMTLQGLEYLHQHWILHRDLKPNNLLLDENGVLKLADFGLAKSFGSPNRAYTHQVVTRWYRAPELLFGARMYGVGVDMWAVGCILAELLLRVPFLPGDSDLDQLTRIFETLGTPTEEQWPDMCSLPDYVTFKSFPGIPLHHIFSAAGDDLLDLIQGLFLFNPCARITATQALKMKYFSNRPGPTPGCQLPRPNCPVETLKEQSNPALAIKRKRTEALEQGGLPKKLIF
Sequence (P51946 whole entry partner, looked up, species assumed): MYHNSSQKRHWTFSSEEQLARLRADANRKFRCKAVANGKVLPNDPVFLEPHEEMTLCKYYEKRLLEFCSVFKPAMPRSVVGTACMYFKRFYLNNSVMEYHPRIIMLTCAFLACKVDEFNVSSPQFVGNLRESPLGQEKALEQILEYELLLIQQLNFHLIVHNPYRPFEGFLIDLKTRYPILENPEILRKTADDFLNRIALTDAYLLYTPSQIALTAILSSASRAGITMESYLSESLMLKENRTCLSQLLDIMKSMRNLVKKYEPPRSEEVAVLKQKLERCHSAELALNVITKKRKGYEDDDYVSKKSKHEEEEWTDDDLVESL
Sequence (P51948 whole entry partner, looked up, species assumed): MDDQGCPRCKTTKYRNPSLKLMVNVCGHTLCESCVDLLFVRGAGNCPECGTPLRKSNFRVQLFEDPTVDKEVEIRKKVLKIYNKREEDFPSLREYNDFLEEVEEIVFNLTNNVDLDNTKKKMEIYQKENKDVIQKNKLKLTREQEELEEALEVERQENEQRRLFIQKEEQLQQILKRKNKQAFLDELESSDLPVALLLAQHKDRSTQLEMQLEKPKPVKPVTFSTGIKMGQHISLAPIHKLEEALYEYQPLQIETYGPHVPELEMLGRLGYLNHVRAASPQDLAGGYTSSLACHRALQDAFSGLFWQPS
Assay: Biochemical assay for CDK7, LANCE TR-FRET
Settings: ATP 1 mM/100 μM, 60 min pre-incubation; read-out: CDK 7 IC50
quantity_name: IC50 (nM)

> print(dat)
                                   molecule  readout.units  result.comparator  result.number
1  C=CC(=O)N1CC=C(c2ccc(C(C(=O)Nc3cc(C4CC4)[nH]n3)C(C)C)cn2)CC1 (stereo not shown)             nM                  =            744
2  C=CC(=O)NC1CCC(c2ccc(C(C)C(=O)Nc3cc(C4CC4)n[nH]3)cc2)CC1 (single isomer, unassigned) [Compound 11]             nM                  =           3650
3  C=CC(=O)N1CCC=C(c2ccc(C(C)C(=O)Nc3cc(C4CC4)[nH]n3)cc2)CC1 (stereo not shown)             nM                  =           6580
4  C=CC(=O)N1CC=C(c2ccc(C(C)C(=O)Nc3cc(C4CC4)[nH]n3)cn2)CC1 (single isomer, unassigned) [Compound 6]             nM                  =           1300
5  CC#CC(=O)N1CCC=C(c2ccc(C(C)C(=O)Nc3cc(C4CC4)[nH]n3)cn2)C1 (stereo not shown)             nM                  =           2190
6  C=CC(=O)N1CC=C(c2ccc(C(C)C(=O)Nc3cc(C4CC4)[nH]n3)cn2)C1 (stereo not shown)             nM                  =           1010
7  C=CC(=O)N1CC=C(c2ccc(C(C)C(=O)Nc3cc(C4CC4)[nH]n3)cn2)CC1 (single isomer, unassigned) [Compound 5]             nM                  >          10000

These data points were gathered from patent US10894786B2.
